Test system: RS4; 11 leukaemia tumour line
Test: In vitro cytotoxicity, Microculture Tetrazolium Assay (MTT)
Assay type: cell-based
Conditions: Homo sapiens, RS4-11, 48 h, 11 cells, 48 hours exposure
Assay readout: IC50 (nM)
Number only, in nM; omit the unit.

Worked set:
>  <Chemical structure>
Cc1c2cc(n1C)-c1cc(Cl)ccc1C(=O)N1CCc3c(cccc3OCCN(C)CCOc3ncc(cn3)N(c3ccc(O)cc3)C2=O)C1

>  <Experimental system>
RS4; 11 leukaemia tumour line

>  <IC50 [nM]>
35.4

$$$$
>  <Chemical structure>
Cc1c2cc(n1C)-c1cc(Cl)ccc1C(=O)N1CCc3c(cccc3OCCCCOc3cccc(c3)N(c3ccc(O)cc3)C2=O)C1

>  <Experimental system>
RS4; 11 leukaemia tumour line

>  <IC50 [nM]>
749

$$$$

Value of measured IC50 for the entry `Cc1c2cc(n1C)-c1cc(Cl)ccc1C(=O)N1CCc3c(cccc3OCCOCCOc3ncc(cn3)N(c3ccc(O)cc3)C2=O)C1` : 23.1
